Origin of the recorded values: patent US20200071424A1

# EC50 (read off the curve) listing for each entry below
- TESTED_SYSTEM: T1, human [1-157]-mouse chimeric EL (human; mouse, UniProt Q9WVG5 158-500)
- T1 construct: Heparin extract, detected by an anti-C2-tag antibody
- T1 sequence: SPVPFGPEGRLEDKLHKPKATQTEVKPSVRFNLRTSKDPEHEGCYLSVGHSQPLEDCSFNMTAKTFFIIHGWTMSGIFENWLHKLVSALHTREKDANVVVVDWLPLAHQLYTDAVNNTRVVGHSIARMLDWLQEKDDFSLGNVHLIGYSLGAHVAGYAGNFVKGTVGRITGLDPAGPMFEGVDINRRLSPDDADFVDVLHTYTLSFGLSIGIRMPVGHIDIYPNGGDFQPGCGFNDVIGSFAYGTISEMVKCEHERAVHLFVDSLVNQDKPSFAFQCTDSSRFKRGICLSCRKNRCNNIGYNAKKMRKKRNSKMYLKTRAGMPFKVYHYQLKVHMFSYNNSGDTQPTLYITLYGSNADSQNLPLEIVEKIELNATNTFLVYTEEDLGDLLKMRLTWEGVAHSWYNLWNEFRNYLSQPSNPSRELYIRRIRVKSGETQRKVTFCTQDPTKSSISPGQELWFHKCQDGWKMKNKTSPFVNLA
- TEST_DETAILS: ELISA: antibody captured on anti-mouse IgG-Fc plate, EL heparin extract added, detection with biotin anti-C2-tag antibody and HRP-streptavidin, A450

BINDER	EC50 (read off the curve)
14A1 (antibody, mouse IgG1, V domains shown, mouse IgG1 from hybridoma) VH: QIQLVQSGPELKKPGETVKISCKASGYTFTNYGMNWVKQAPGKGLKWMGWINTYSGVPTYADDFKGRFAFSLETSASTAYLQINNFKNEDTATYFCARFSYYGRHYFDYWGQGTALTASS VL: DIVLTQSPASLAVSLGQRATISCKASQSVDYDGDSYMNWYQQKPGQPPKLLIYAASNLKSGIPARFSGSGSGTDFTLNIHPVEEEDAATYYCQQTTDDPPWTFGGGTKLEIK	~7 ng/mL

Now for another entry.
Please indicate EC50 (read off the curve) recorded for 23H8 (antibody, mouse IgG2a, V domains shown, mouse IgG2a from hybridoma; also called 23H8 (mouse mAb)) VH: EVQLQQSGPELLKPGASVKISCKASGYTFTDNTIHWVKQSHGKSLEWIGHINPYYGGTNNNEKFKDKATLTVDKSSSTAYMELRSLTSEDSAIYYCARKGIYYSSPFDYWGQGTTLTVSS VL: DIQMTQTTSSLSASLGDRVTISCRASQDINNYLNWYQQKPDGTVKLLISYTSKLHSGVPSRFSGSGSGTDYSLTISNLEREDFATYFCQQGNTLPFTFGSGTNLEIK
~4 ng/mL
